FYI, the data here is from ChEMBL document CHEMBL1157539.

Tested on: Plasmodium falciparum
Assay: GSK_TCMDC: Inhibition of Plasmodium falciparum 3D7 in whole red blood cells, using parasite LDH activity as an index of growth. Test compounds present at 2uM
Assay type: functional
Listed below: Inhibition values for each entry.
Assay readout: Inhibition (%)

[[record]]
compound = "Cc1sc2nc(CSc3ccccc3)nc(N3CCN(CC(=O)NC4CC4)CC3)c2c1C"
assay_readout = "Inhibition"
measured_result = 96

[[record]]
compound = "CC(C)C[C@H](NC(=O)c1cc(-c2ccc(C(C)(C)C)cc2)no1)C(=O)O.CC(C)C[C@H](NC(=O)c1conc1-c1ccc(C(C)(C)C)cc1)C(=O)O"
assay_readout = "Inhibition"
measured_result = 95

[[record]]
compound = "Cl.N=C(N)Nc1ccc(OCCCCCOc2ccc(NC(=N)N)cc2)cc1"
assay_readout = "Inhibition"
measured_result = 99

[[record]]
compound = "CO/C(=C\\C=C\\c1cc2cc(Cl)c(Cl)cc2[nH]1)C(=O)NCCCN1CCN(c2cccc(O)c2)CC1"
assay_readout = "Inhibition"
measured_result = 91

[[record]]
compound = "Nc1nccc2ccc(-c3cccnc3)cc12"
assay_readout = "Inhibition"
measured_result = 97

[[record]]
compound = "O=C(NC1CCN(c2ccnc(Nc3ccc(F)cc3)n2)C1)c1cc2ccccc2s1 (stereo unspecified)"
assay_readout = "Inhibition"
measured_result = 99

[[record]]
compound = "CC(C)CC(=O)Nc1cc(=O)[nH]c2nc(-c3ccccc3)nn12"
assay_readout = "Inhibition"
measured_result = 89

[[record]]
compound = "CCCC1N=C(N)N=C(N)N1c1ccccc1.Cl (stereo unspecified)"
assay_readout = "Inhibition"
measured_result = 93

[[record]]
compound = "O=S(=O)(c1ccc(NC(S)=NN=Cc2ccccn2)cc1)N1CCCCC1"
assay_readout = "Inhibition"
measured_result = 98

[[record]]
compound = "CCCNCc1ccc(-c2ccc(CN(CCOC)C(=O)c3cscn3)cc2)nc1.O=C(O)C(F)(F)F"
assay_readout = "Inhibition"
measured_result = 99

[[record]]
compound = "Cl.O=C(Nc1ccc(C(=O)OCC2CCCN3CCCCC23)cc1)c1ccc([N+](=O)[O-])cc1 (stereo unspecified)"
assay_readout = "Inhibition"
measured_result = 95

[[record]]
compound = "O=C(COc1ccc(Cl)c(Cl)c1)NCCCCCN1CCCN(C(=O)Nc2ccc(Cl)c(Cl)c2)CC1.O=C(O)C(F)(F)F"
assay_readout = "Inhibition"
measured_result = 93

[[record]]
compound = "O=C(O)C(F)(F)F.O=S(=O)(/C=C/c1ccccc1)N(Cc1ccc(-c2ccc(CNCCOc3ccccc3)cc2)cc1)CC1CCCCN1 (stereo unspecified)"
assay_readout = "Inhibition"
measured_result = 99

[[record]]
compound = "O=C(/C=C/c1ccc(Cl)c(Cl)c1)NCCCCCN1CCC(NC(=O)Nc2cc(Cl)cc(Cl)c2)CC1"
assay_readout = "Inhibition"
measured_result = 94

[[record]]
compound = "O=C(O)C(F)(F)F.c1ccc(CCNCc2ccc(-c3ccc(CNCc4ccc5c(c4)OCO5)cc3)nc2)cc1"
assay_readout = "Inhibition"
measured_result = 94

[[record]]
compound = "CCc1cc2c(=O)c(-c3nc(C)cs3)c(N)oc2c(CN2CCCCC2)c1O"
assay_readout = "Inhibition"
measured_result = 99

[[record]]
compound = "Cn1c(Nc2cc(C(C)(C)C)on2)nc2cc(Nc3ccnc(Nc4ccc(CS(C)(=O)=O)cc4)n3)ccc21"
assay_readout = "Inhibition"
measured_result = 100

[[record]]
compound = "Cn1cc(-c2ccccc2C(=O)O)c(=O)c2cc(Cl)ccc21"
assay_readout = "Inhibition"
measured_result = 89

[[record]]
compound = "Cc1cc(N2CCC(N(C)C)C2)nc(Nc2ccc(Cl)cc2)n1 (stereo unspecified)"
assay_readout = "Inhibition"
measured_result = 99

[[record]]
compound = "CN1Cc2ccc(NS(=O)(=O)c3ccc(-c4ccoc4)cc3)cc2C1.Cl"
assay_readout = "Inhibition"
measured_result = 97

[[record]]
compound = "Cc1cc(=NN=Cc2ccccc2)c2cc(F)ccc2[nH]1"
assay_readout = "Inhibition"
measured_result = 100

[[record]]
compound = "Clc1ccc(-c2cc(-c3csc(NCCN4CCOCC4)n3)on2)c(Cl)c1"
assay_readout = "Inhibition"
measured_result = 97

[[record]]
compound = "Cn1nc(-c2ccc(NC(=O)Nc3cc(C(F)(F)F)ccc3F)c(F)c2)c2cnc(NCCCN3CCOCC3)nc21.O=C(O)C(F)(F)F"
assay_readout = "Inhibition"
measured_result = 100

[[record]]
compound = "Cc1cccn2c(=O)c3cc(C(=O)NCc4cccnc4)c(=N)n(CCc4ccccc4)c3nc12"
assay_readout = "Inhibition"
measured_result = 99

[[record]]
compound = "CCCCCCc1cc2cc(-c3nc(-c4ccc(OC)cc4)cs3)c(=O)oc2cc1O"
assay_readout = "Inhibition"
measured_result = 97

[[record]]
compound = "CCN(Cc1ccc(-c2ccc(C(F)(F)F)cc2)cc1)C(=O)Cn1c(SCc2cccc(F)c2F)cc(=O)c2cc(CN3CCCCC3)ccc21.Cl"
assay_readout = "Inhibition"
measured_result = 100

[[record]]
compound = "Cc1cc(C)c(NC(=O)N[C@H]2CCN(CCCCCNC(=O)/C=C/c3ccc(Cl)c(Cl)c3)C2)c(C)c1"
assay_readout = "Inhibition"
measured_result = 91

[[record]]
compound = "CN(Cc1cccc(O)c1)C1CCN(c2cc(NC(=O)c3cccc(F)c3)ccn2)CC1.O=C(O)C(F)(F)F"
assay_readout = "Inhibition"
measured_result = 98

[[record]]
compound = "COc1ccc(C23Oc4cc(OC)cc(OC)c4C2(O)C2(CC3c3ccccc3)SCCCS2)cc1 (stereo unspecified)"
assay_readout = "Inhibition"
measured_result = 96

[[record]]
compound = "Oc1ccc(Br)cc1C(O)CNCc1ccccc1OCc1ccccc1 (stereo unspecified)"
assay_readout = "Inhibition"
measured_result = 100

[[record]]
compound = "Cc1cccc2nc(-c3ccc(-c4cccc(CNCc5ccccc5)c4)cc3)[nH]c12.O=C(O)C(F)(F)F"
assay_readout = "Inhibition"
measured_result = 100

[[record]]
compound = "N#Cc1cccc(CNC(=O)c2cccc(Nc3ccnc4ccc(F)cc34)c2)c1.O=C(O)C(F)(F)F"
assay_readout = "Inhibition"
measured_result = 87

[[record]]
compound = "Br.CC1(C)NC(N)=NC(=N)N1OCCCCCCOc1ccc(Cl)c2ccccc12"
assay_readout = "Inhibition"
measured_result = 91

[[record]]
compound = "O=C(NCCCCN1CCN(c2ccc3c(c2)CCC3)CC1)c1ccc(NC(=O)c2ccc(Cl)cc2)cc1"
assay_readout = "Inhibition"
measured_result = 98

[[record]]
compound = "CC(C)c1ccc(NS(=O)(=O)c2cccc(C(=O)NC3CCN(CC4CCCCC4)CC3)c2)cc1.O=C(O)C(F)(F)F"
assay_readout = "Inhibition"
measured_result = 93

[[record]]
compound = "CC1CN(Cc2ccc(-c3ccc(-c4nc5cc(F)ccc5[nH]4)cc3)cc2)CC(C)O1.O=C(O)C(F)(F)F (stereo unspecified)"
assay_readout = "Inhibition"
measured_result = 96


====

Test system: Plasmodium falciparum
Assay: GSK_TCMDC: Inhibition of Plasmodium falciparum Dd2 in whole red blood cells, using parasite LDH activity as an index of growth. Test compounds present at 2uM
Assay type: functional
Form field: Inhibition (one value per entry).
Assay readout: Inhibition (%)

[[record]]
molecule = "COc1cc2nc(Nc3ccc(C)cc3)nc(Nc3ccc(C)cc3)c2cc1OC.Cl"
tgt = "Plasmodium falciparum"
measured_result = 100

[[record]]
molecule = "COc1ccccc1N1CCN(CCCCNC(=O)c2ccc(NC(=O)c3ccc4ccccc4c3)cc2)CC1"
tgt = "Plasmodium falciparum"
measured_result = 18

[[record]]
molecule = "O=C(O)C(F)(F)F.O=C1COC(c2ccccc2)(c2ccccc2)CN1CC1CCN(Cc2ccc(O)cc2Cl)C1 (stereo not drawn)"
tgt = "Plasmodium falciparum"
measured_result = 81

[[record]]
molecule = "O=C(Nc1ccc(-c2ccc(CN3CCNCC3)cc2)cc1)c1cccc(Cl)c1.O=C(O)C(F)(F)F"
tgt = "Plasmodium falciparum"
measured_result = 16

[[record]]
molecule = "CCOC(=O)[C@H](Cc1cccc2ccccc12)NC(=O)[C@H](CCC(=O)OC(C)(C)C)NC(=O)c1ccc(N(C)Cc2cnc3nc(N)nc(N)c3n2)cc1"
tgt = "Plasmodium falciparum"
measured_result = 96

[[record]]
molecule = "N#Cc1ccc(CN2CCC(NC(=O)c3ccc(-c4nnc(-c5cccc6ccccc56)o4)cc3)CC2)cc1"
tgt = "Plasmodium falciparum"
measured_result = 14

[[record]]
molecule = "COc1cccc(Nc2c(C(N)=O)cnc3ccc(-c4ccccc4)cc23)c1"
tgt = "Plasmodium falciparum"
measured_result = 99

[[record]]
molecule = "CCCNCc1ccc(-c2ccc(CN(Cc3cnc(C)cn3)C(=O)/C=C/c3ccccc3C)cc2)nc1.O=C(O)C(F)(F)F"
tgt = "Plasmodium falciparum"
measured_result = 15

[[record]]
molecule = "CC(C)C1C(O)=C(c2ccc3ccccc3c2)C(=O)N1CC1CCCCC1 (stereo not drawn)"
tgt = "Plasmodium falciparum"
measured_result = 43

[[record]]
molecule = "CC(=O)c1sc2ccccc2c1O"
tgt = "Plasmodium falciparum"
measured_result = 0

[[record]]
molecule = "O=C(NCCCCCN1CCC(c2ccc(O)cc2)CC1)c1ccc(-c2ccccc2)cc1"
tgt = "Plasmodium falciparum"
measured_result = 0

[[record]]
molecule = "CN(CCCCN)Cc1ccc(-c2ccc(Cl)cc2)cc1"
tgt = "Plasmodium falciparum"
measured_result = 20

[[record]]
molecule = "O=C(Nc1cc(F)cc(F)c1)NC1CCN(CCCCCNC(=O)C2CC2c2ccc(Cl)c(Cl)c2)CC1 (stereo not drawn)"
tgt = "Plasmodium falciparum"
measured_result = 6

[[record]]
molecule = "CN1CCC(NCc2cccc(-c3nn(C)c4nc(NC5CCCC5)ncc34)c2)CC1"
tgt = "Plasmodium falciparum"
measured_result = 44

[[record]]
molecule = "N=C(N)NC(=O)Nc1cc(Cl)c(Cl)c(C(F)(F)F)c1"
tgt = "Plasmodium falciparum"
measured_result = 99

[[record]]
molecule = "CN(C)CCN(C)Cc1ccc(-c2ccc3c(Nc4ccc(Oc5ccccc5)cc4)ccnc3c2)o1"
tgt = "Plasmodium falciparum"
measured_result = 100

[[record]]
molecule = "O=C(O)C[C@H](NC(=O)c1cc(-c2ccc3c(c2)OCO3)no1)C(=O)O.O=C(O)C[C@H](NC(=O)c1conc1-c1ccc2c(c1)OCO2)C(=O)O"
tgt = "Plasmodium falciparum"
measured_result = 0

[[record]]
molecule = "C#CCN(Cc1ccc2[nH]c(N)nc(=O)c2c1)c1ccc(C(=O)N[C@@H](CCC(=O)O)C(=O)O)cc1"
tgt = "Plasmodium falciparum"
measured_result = 96

[[record]]
molecule = "CC(Oc1ccc(NC(=O)c2cccs2)cc1)C(=O)c1ccc(Cl)cc1 (stereo not drawn)"
tgt = "Plasmodium falciparum"
measured_result = 83

[[record]]
molecule = "COc1ccc2ncc(F)c(CCN3CC[C@H](NCc4cc5c(s4)CCCN5)[C@H](O)C3)c2n1.Cl"
tgt = "Plasmodium falciparum"
measured_result = 16

[[record]]
molecule = "COc1cc2nc(Nc3ccc4c(c3)OCCO4)nc(N)c2cc1OC.Cl"
tgt = "Plasmodium falciparum"
measured_result = 80

[[record]]
molecule = "Cc1cc(C)cc(OCC(O)CN(Cc2cc(Cl)cc(Cl)c2)C(=O)Nc2ccccc2Cl)c1 (stereo not drawn)"
tgt = "Plasmodium falciparum"
measured_result = 37

[[record]]
molecule = "Cc1ccc(NC(=O)N2CCCN(CCCCCNC(=O)/C=C/c3ccc(Cl)c(Cl)c3)CC2)cc1"
tgt = "Plasmodium falciparum"
measured_result = 2

[[record]]
molecule = "CC(Nc1ccnc2cc(Cl)ccc12)c1ccc(S(N)(=O)=O)cc1 (stereo not drawn)"
tgt = "Plasmodium falciparum"
measured_result = 21

[[record]]
molecule = "CC(=O)N1CCN(c2ccc(NC(=O)c3oc(-c4ccccc4)nc3C(F)(F)F)cn2)CC1"
tgt = "Plasmodium falciparum"
measured_result = 93

[[record]]
molecule = "O=C(c1csc(-c2cccnc2)n1)N1CCc2cc3nccc(N4CCN5CCC[C@H]5C4)c3cc21"
tgt = "Plasmodium falciparum"
measured_result = 78

[[record]]
molecule = "CN(C)Cc1cccc2nc(-c3csc(Cc4cc(Cl)ccc4OCc4ccccc4)n3)[nH]c12"
tgt = "Plasmodium falciparum"
measured_result = 77

[[record]]
molecule = "C=CCc1cc(OC)ccc1OCCCOc1c(C)nc(N)nc1N.Cl"
tgt = "Plasmodium falciparum"
measured_result = 97

[[record]]
molecule = "CCCc1cc(Cc2cnc(N)nc2N)cc(CCC)c1OCCCCCC(=O)OCC"
tgt = "Plasmodium falciparum"
measured_result = 0

[[record]]
molecule = "CCc1ccc(-n2cc(C(=O)c3cc(Br)ccc3O)cc(C#N)c2=O)cc1"
tgt = "Plasmodium falciparum"
measured_result = 30

[[record]]
molecule = "Cc1cc(N[C@@H](CC(C)C)C(=O)Nc2ccccc2)nc(Nc2ccccc2)n1.O=C(O)C(F)(F)F"
tgt = "Plasmodium falciparum"
measured_result = 93

[[record]]
molecule = "Cc1cccc2[nH]c(-c3cc(-c4cccc(Cl)c4)cnc3N)nc12.O=C(O)C(F)(F)F"
tgt = "Plasmodium falciparum"
measured_result = 99

[[record]]
molecule = "CCCC(=O)c1cnc2c(OCCCc3c[nH]cn3)cccc2c1Nc1c(C)cccc1C"
tgt = "Plasmodium falciparum"
measured_result = 14

[[record]]
molecule = "CC1CN(c2ccc(NC(=O)c3ccsc3)cc2C(=O)N2CCN(Cc3ccc(C(C)(C)C)cc3)CC2)CC(C)O1 (stereo not drawn)"
tgt = "Plasmodium falciparum"
measured_result = 80

[[record]]
molecule = "c1ccc(CN2CCN(c3cc(-c4cncc(-c5ccccc5)c4)nc(-c4ccccc4)n3)CC2)cc1"
tgt = "Plasmodium falciparum"
measured_result = 12

[[record]]
molecule = "CCCCN(CCCC)Cc1cc2ccccc2cc1O.Cl"
tgt = "Plasmodium falciparum"
measured_result = 98

[[record]]
molecule = "Br.Clc1ccc(-c2nc(-c3ccncc3)c[nH]2)cc1Cl"
tgt = "Plasmodium falciparum"
measured_result = 63

[[record]]
molecule = "Cl.OC(c1ccccc1)C1CN(CCC2CC3CCC2C3)CCC1(O)c1ccccc1 (stereo not drawn)"
tgt = "Plasmodium falciparum"
measured_result = 99

